Measured EC50 values are reported for all entries that follow.
system: β2-adrenergic receptor (B2-AR) (Homo sapiens)
Construct: expressed in transfected cells
Sequence (P07550 whole entry): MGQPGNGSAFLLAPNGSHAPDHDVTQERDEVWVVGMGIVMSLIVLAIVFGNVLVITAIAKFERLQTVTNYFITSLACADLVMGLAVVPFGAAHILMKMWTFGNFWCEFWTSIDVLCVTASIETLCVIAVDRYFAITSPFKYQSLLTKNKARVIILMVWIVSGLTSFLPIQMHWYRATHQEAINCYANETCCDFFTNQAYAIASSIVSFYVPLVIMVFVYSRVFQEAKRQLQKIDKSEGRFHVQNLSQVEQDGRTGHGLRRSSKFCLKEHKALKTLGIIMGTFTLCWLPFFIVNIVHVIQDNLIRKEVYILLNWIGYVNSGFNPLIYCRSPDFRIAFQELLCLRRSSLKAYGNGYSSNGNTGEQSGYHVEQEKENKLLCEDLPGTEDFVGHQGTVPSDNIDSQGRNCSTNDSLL
test name: cAMP Gs dynamic HTRF assay, cells expressing β2-adrenergic receptor
Assay type: cell-based
measurement context: CHO-K1 (HitHunter) cells; read-out: Average pEC50 [Receptor subtype: B2-AR; Cell type: CHO-K1 (HitHunter)] (converted)
property name: EC50

CC(C)NC[C@H](O)c1cc(F)cc2[nH]ncc12 :: < 10 nM
Cc1noc2ccc([C@H](O)CNC(C)(C)C)cc12 :: 10 to 100 nM
CC(C)(C)NC[C@H](O)c1ccc(Cl)c2[nH]ncc12 :: < 10 nM
CC(C)(C)NC[C@H](O)c1ccc2c(n1)NCCO2 :: 10 to 100 nM
Cc1c[nH]c2nccc([C@@H](O)CNC(C)(C)C)c12 :: > 1000 nM
CC(C)(C)NC[C@H](O)c1ccc(C(F)(F)F)c2cccnc12 :: < 10 nM
Cc1cc([C@@H](O)CNC(C)(C)C)cc2nc[nH]c12 :: 100 to 1000 nM
CC(C)(C)NC[C@@H](O)c1cccc2ccc(C#N)nc12 :: 100 to 1000 nM
CC(C)(C)NC[C@H](O)c1c(F)ccc2cccnc12 :: > 1000 nM
Cn1ncc2c([C@H](O)CNC(C)(C)C)cccc21 :: > 1000 nM
Cc1nc(N)c(Cl)cc1[C@@H](O)CNC(C)(C)C :: < 10 nM
COc1ccc(C[C@@H](C)NC[C@H](O)c2cccc3[nH]c4ccccc4c23)cc1 :: < 10 nM
Cn1c(=O)ccc2c([C@@H](O)CNC(C)(C)C)cccc21 :: < 10 nM
Cc1noc2ccc([C@@H](O)CNC(C)(C)C)cc12 :: > 1000 nM
O[C@H](CNC1(C(F)(F)F)CC1)c1cccc2cccnc12 :: > 1000 nM
CC(C)(C)NC[C@@H](O)c1cccc2ccc(C(F)(F)F)nc12 :: 100 to 1000 nM
Cc1cc(N)nc([C@H](O)CNC(C)(C)C)c1 :: > 1000 nM
CC(C)(C)NC[C@H](O)c1cc(F)cc2cccnc12 :: < 10 nM
Cc1cc2c([C@H](O)CNC(C)(C)C)cccc2[nH]c1=O :: > 1000 nM
COc1cc([C@@H](O)CNC(C)(C)C)c2cn[nH]c2c1 :: < 10 nM
Cn1c(=O)ccc2c([C@H](O)CNC(C)(C)C)cccc21 :: 100 to 1000 nM
CC(C)NC[C@H](O)c1cccc2[nH]c3ccccc3c12 :: < 10 nM
CC(C)(C)NC[C@@H](O)c1cccc(O)n1 :: > 1000 nM
CC(C)(C)NC[C@H](O)c1ncc(O)c2ccccc12 :: > 1000 nM
Cc1ccnc2c([C@@H](O)CNC(C)(C)C)cccc12 :: 10 to 100 nM
CC(C)(C)NC[C@H](O)c1ccc2c(n1)CCC2 :: 10 to 100 nM
CC(C)(C)NC[C@H](O)c1cccc2[nH]c3ccccc3c12 :: < 10 nM
CC(C)(C)NC[C@H](O)c1ccc2ccc(C(F)(F)F)cc2n1 :: < 10 nM
CC(C)(C)NC[C@@H](O)c1ccc2ccc(C(F)(F)F)cc2n1 :: 100 to 1000 nM
CC(C)(C)NC[C@H](O)c1ccc2c(n1)NCC2 :: 10 to 100 nM
Cc1cc(N)nc([C@@H](O)CNC(C)(C)C)c1 :: 10 to 100 nM
CC(C)(C)NC[C@H](O)c1ccc2cccc(Cl)c2n1 :: < 10 nM
Cc1ccc2cccc([C@@H](O)CNC(C)(C)C)c2n1 :: < 10 nM
Cn1ncc2cc([C@H](O)CNC(C)(C)C)ccc21 :: 10 to 100 nM
CC(C)(C)NC[C@H](O)c1c2cn[nH]c2cc[n+]1[O-] :: 100 to 1000 nM
CC(C)(C)NC[C@@H](O)c1ccc(F)c2cccnc12 :: 100 to 1000 nM
CC1(NC[C@H](O)c2cc(F)cc3[nH]ncc23)CC1 :: < 10 nM
CC(C)(C)NC[C@H](O)c1cc(F)c2[nH]cnc2c1 :: < 10 nM
